I'd appreciate it if you could supply log10(IC50) values for the items below.
system: Blood; assay: Antiinflammatory activity against Sprague-Dawley rat whole blood assessed as suppression of LPS-induced TNFalpha production by ELISA; assay type: functional, tissue-based; details: Rattus norvegicus, Sprague-Dawley, Blood
Hi team, quick reminder: these entries are log10 of IC50 (nM).

Ask: State its log10(IC50) on Blood: COc1ccc(C2=NN(C/C=C/Cn3ccnc3)C(=O)[C@@H]3CC=CC[C@H]23)cc1OC (relative stereo)
Result: -0.15

Ask: State its log10(IC50) on Blood: COc1ccc(C2=NN(CCOCCn3ccnc3)C(=O)[C@@H]3CC=CC[C@H]23)cc1OC (relative stereo)
Result: 0.96

Ask: State its log10(IC50) on Blood: COc1ccc(C2=NN(Cc3ccc(CN4CCOCC4)cc3)C(=O)CC2)cc1OC
Result: 2.65

Ask: State its log10(IC50) on Blood: COc1ccc(C2=NN(Cc3ccccc3CN3CCOCC3)C(=O)[C@@H]3CC=CC[C@H]23)cc1OC (relative stereo)
Result: 0.00

Ask: State its log10(IC50) on Blood: COc1ccc(C2=NN(CC(=O)NCCCn3ccnc3)C(=O)[C@@H]3CC=CC[C@H]23)cc1OC (relative stereo)
Result: 2.05

====

I'd appreciate it if you could supply pIC50 values for the items below.
tested on: Blood; assay: Antiinflammatory activity against Sprague-Dawley rat whole blood assessed as suppression of LPS-induced TNFalpha production by ELISA; format: functional, tissue-based; conditions: Rattus norvegicus, Sprague-Dawley, Blood
Conceptually, pIC50 converts a concentration in mol/L into minus its log10.

Ask: May I ask what pIC50 has been recorded for COc1ccc(C2=NN(Cc3cccc(CN4CCOCC4)c3)C(=O)[C@@H]3CC=CC[C@H]23)cc1OC (relative stereo) ?
Result: 8.52

Ask: May I ask what pIC50 has been recorded for COc1ccc(C2=NN(Cc3ccc(CN4CCOCC4)cc3)C(=O)[C@@H]3CC[C@H]23)cc1OC (relative stereo) ?
Result: 7.35

Ask: May I ask what pIC50 has been recorded for COc1ccc(C2=NN(Cc3ccc(CN4CCCCC4)cc3)C(=O)[C@@H]3CC=CC[C@H]23)cc1OC (relative stereo) ?
Result: 7.24

Ask: May I ask what pIC50 has been recorded for COc1ccc(C2=NN(Cc3ccccc3CN3CCOCC3)C(=O)[C@@H]3CCCC[C@H]23)cc1OC (relative stereo) ?
Result: 8.34

Ask: May I ask what pIC50 has been recorded for COc1ccc(C2=NN(Cc3ccc(CN4CCC5(CC4)OCCO5)cc3)C(=O)[C@@H]3CC=CC[C@H]23)cc1OC (relative stereo) ?
Result: 9.05

Ask: May I ask what pIC50 has been recorded for COc1ccc(C2=NNC(=O)[C@@H]3CC=CC[C@H]23)cc1OC (racemic) ?
Result: 6.68

Ask: May I ask what pIC50 has been recorded for COc1ccc(C2=NN(Cc3ccc(CN(C)C)cc3)C(=O)[C@@H]3CC=CC[C@H]23)cc1OC (relative stereo) ?
Result: 7.46

====

assay: Half life in human liver S9 fraction; type: ADME, subcellular
Property Measured: half-life (min)
Output spec: scalar in min, unitless text.

Ask: May I ask what half-life has been recorded for COc1ccc(C2=NN(Cc3ccc(CN4CCOCC4)cc3)C(=O)[C@@H]3CC=CC[C@H]23)cc1OC.Cl ?
Result: 6

====

target: 3',5'-cyclic-AMP phosphodiesterase 4D (Homo sapiens, UniProt Q08499); experiment: Inhibition of human recombinant PDE4D catalytic domain cloned from human HL60 cells assessed as inhibition of cAMP hydrolysis
Sequence (Q08499 whole entry, the tested form may be a part): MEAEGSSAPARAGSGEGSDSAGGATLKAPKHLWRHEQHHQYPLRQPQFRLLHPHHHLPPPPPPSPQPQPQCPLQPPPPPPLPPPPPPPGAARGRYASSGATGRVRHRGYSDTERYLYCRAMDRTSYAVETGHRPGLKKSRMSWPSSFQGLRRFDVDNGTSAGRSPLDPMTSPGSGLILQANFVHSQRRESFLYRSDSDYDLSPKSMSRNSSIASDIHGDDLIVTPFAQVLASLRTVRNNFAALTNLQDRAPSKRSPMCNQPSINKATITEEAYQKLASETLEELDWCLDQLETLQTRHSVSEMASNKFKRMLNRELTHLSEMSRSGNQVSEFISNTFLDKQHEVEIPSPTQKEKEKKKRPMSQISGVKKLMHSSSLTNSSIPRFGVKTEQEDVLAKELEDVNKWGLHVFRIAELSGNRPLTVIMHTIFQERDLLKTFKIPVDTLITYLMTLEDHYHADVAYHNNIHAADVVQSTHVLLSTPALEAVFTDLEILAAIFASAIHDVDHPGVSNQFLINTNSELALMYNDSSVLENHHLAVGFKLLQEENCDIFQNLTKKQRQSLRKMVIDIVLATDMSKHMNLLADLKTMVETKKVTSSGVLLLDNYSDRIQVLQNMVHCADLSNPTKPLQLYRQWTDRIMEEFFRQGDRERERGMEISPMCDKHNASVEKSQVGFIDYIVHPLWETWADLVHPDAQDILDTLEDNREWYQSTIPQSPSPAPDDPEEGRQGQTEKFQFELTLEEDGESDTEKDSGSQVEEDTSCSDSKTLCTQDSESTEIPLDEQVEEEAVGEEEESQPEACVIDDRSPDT
Property Measured: pIC50
Conceptually, pIC50 converts a concentration in mol/L into minus its log10.

Ask: May I ask what pIC50 has been recorded for COc1ccc(C2=NN(Cc3ccc(CN4CCN(C)CC4)cc3)C(=O)[C@@H]3CC=CC[C@H]23)cc1OC (relative stereo) ?
Result: 8.70

Ask: May I ask what pIC50 has been recorded for COc1ccc(C2=NN(Cc3ccc(CN4CCC5(CC4)OCCO5)cc3)C(=O)[C@@H]3CC=CC[C@H]23)cc1OC (relative stereo) ?
Result: 8.89

Ask: May I ask what pIC50 has been recorded for COc1ccc(C2=NN(Cc3ccc(CN4CCOCC4)cc3)C(=O)[C@@H]3CC[C@H]23)cc1OC (relative stereo) ?
Result: 8.37

Ask: May I ask what pIC50 has been recorded for COc1ccc(C2=NN(Cc3ccc(Cn4ccnc4)cc3)C(=O)[C@@H]3CC=CC[C@H]23)cc1OC (relative stereo) ?
Result: 9.15

====

test system: Blood; assay: Antiinflammatory activity against Sprague-Dawley rat whole blood assessed as suppression of LPS-induced TNFalpha production by ELISA; type: functional, tissue-based; details: Rattus norvegicus, Sprague-Dawley, Blood
I'd appreciate it if you could supply IC50 values for the items below.
Please state the value followed by its unit.

Ask: State its IC50 on Blood: COc1ccc(C2=NN(Cc3ccc(Cn4ccnc4)cc3)C(=O)[C@@H]3CC=CC[C@H]23)cc1OC (relative stereo)
Result: 0.5 nM

Ask: State its IC50 on Blood: COc1ccc(C2=NN(Cc3ccc(CN4CCC(=O)CC4)cc3)C(=O)[C@@H]3CC=CC[C@H]23)cc1OC (relative stereo)
Result: 3 nM

Ask: State its IC50 on Blood: COc1ccc(C2=NN(Cc3ccc(CN4CCOCC4)cc3)C(=O)[C@@H]3C[C@H]23)cc1OC (relative stereo)
Result: 119 nM

Ask: State its IC50 on Blood: COc1ccc(C2=NN(Cc3ccc(CN4CCN(C)CC4)cc3)C(=O)[C@@H]3CC=CC[C@H]23)cc1OC (relative stereo)
Result: 14.5 nM

====

I'd appreciate it if you could supply pIC50 values for the items below.
target: 3',5'-cyclic-AMP phosphodiesterase 4D (Homo sapiens); test: Inhibition of human recombinant PDE4D catalytic domain cloned from human HL60 cells assessed as inhibition of cAMP hydrolysis
Conceptually, pIC50 converts a concentration in mol/L into minus its log10.

Ask: May I ask what pIC50 has been recorded for COc1ccc(C2=NNC(=O)[C@@H]3CC=CC[C@H]23)cc1OC (racemic) ?
Result: 7.07

Ask: May I ask what pIC50 has been recorded for COc1ccc(C2=NN(Cc3ccccc3CN3CCOCC3)C(=O)[C@@H]3CCCC[C@H]23)cc1OC (relative stereo) ?
Result: 9.00

Ask: May I ask what pIC50 has been recorded for COc1ccc(C2=NN(Cc3ccc(CN4CCC(=O)CC4)cc3)C(=O)[C@@H]3CC=CC[C@H]23)cc1OC (relative stereo) ?
Result: 9.05

Ask: May I ask what pIC50 has been recorded for COc1ccc(C2=NN(C/C=C/Cn3ccnc3)C(=O)[C@@H]3CC=CC[C@H]23)cc1OC (relative stereo) ?
Result: 9.40

Ask: May I ask what pIC50 has been recorded for COc1ccc(C2=NN(Cc3ccc(CN4CCCCC4)cc3)C(=O)[C@@H]3CC=CC[C@H]23)cc1OC (relative stereo) ?
Result: 8.09

Ask: May I ask what pIC50 has been recorded for COc1ccc(C2=NN(Cc3ccc(CN4CCOCC4)cc3)C(=O)[C@@H]3CC=CC[C@H]23)cc1OC.Cl ?
Result: 9.52

Ask: May I ask what pIC50 has been recorded for COc1ccc(C2=NN(Cc3ccc(CN4CCOCC4)cc3)C(=O)[C@@H]3CC=CC[C@H]23)cc1OC (racemic) ?
Result: 9.05

Ask: May I ask what pIC50 has been recorded for COc1ccc(C2=NN(CC(=O)NCCCn3ccnc3)C(=O)[C@@H]3CC=CC[C@H]23)cc1OC (relative stereo) ?
Result: 7.84

Ask: May I ask what pIC50 has been recorded for COc1ccc(C2=NN(Cc3ccc(CN4CCOCC4)cc3)C(=O)[C@@H]3C[C@H]23)cc1OC (relative stereo) ?
Result: 7.79

Ask: May I ask what pIC50 has been recorded for COc1ccc(C2=NN(CCOCCn3ccnc3)C(=O)[C@@H]3CC=CC[C@H]23)cc1OC (relative stereo) ?
Result: 8.28

Ask: May I ask what pIC50 has been recorded for COc1ccc(C2=NN(Cc3ccccc3CN3CCOCC3)C(=O)[C@@H]3CC=CC[C@H]23)cc1OC (relative stereo) ?
Result: 8.89

Ask: May I ask what pIC50 has been recorded for COc1ccc(C2=NN(Cc3ccc(CN4CCOCC4)cc3)C(=O)[C@@H]3CC=CC[C@H]23)cc1OC ?
Result: 8.06

Ask: May I ask what pIC50 has been recorded for COc1ccc(C2=NN(Cc3ccc(CN4CCOCC4)cc3)C(=O)CC2)cc1OC ?
Result: 7.34

Ask: May I ask what pIC50 has been recorded for COc1ccc(C2=NN(Cc3cccc(CN4CCOCC4)c3)C(=O)[C@@H]3CC=CC[C@H]23)cc1OC (relative stereo) ?
Result: 8.85

Ask: May I ask what pIC50 has been recorded for COc1ccc(C2=NN(Cc3ccc(CN(C)C)cc3)C(=O)[C@@H]3CC=CC[C@H]23)cc1OC (relative stereo) ?
Result: 8.01
